test: Release of active in wind tunnel (residual analysis); type: physicochemical; conditions: 5 mg transfluthrin coated on filter paper (103 sq. cm.) from the named solvent
Entries and their % Evap Filter Paper
Please respond with the number in % and leave the unit unwritten.

The examples below pair each entry with its known result.
>  <COMPOUND>
CCC(C)O (stereo not drawn)

>  <UNIT TEXT>
%

>  <% Evap Filter Paper>
67.1

$$$$
>  <COMPOUND>
CC(=O)OCC(C)C [Isobutyl Acetate]

>  <UNIT TEXT>
%

>  <% Evap Filter Paper>
63.8

$$$$
>  <COMPOUND>
CCCCCCC

>  <UNIT TEXT>
%

>  <% Evap Filter Paper>
78.5

$$$$
>  <COMPOUND>
CC(C)=O

>  <UNIT TEXT>
%

>  <% Evap Filter Paper>
57.7

$$$$
>  <COMPOUND>
CCO

>  <UNIT TEXT>
%

>  <% Evap Filter Paper>
45.0

$$$$
>  <COMPOUND>
C1CCOC1

>  <UNIT TEXT>
%

>  <% Evap Filter Paper>
56.4

$$$$

For reference, reported % Evap Filter Paper for CO stands at 47.0

For reference, reported % Evap Filter Paper for CCOC(C)=O [Ethyl Acetate] stands at 61.1

For reference, reported % Evap Filter Paper for CCC(C)=O stands at 62.4

For reference, reported % Evap Filter Paper for COC(C)=O [Methyl Acetate] stands at 55.7

For reference, reported % Evap Filter Paper for Cc1ccccc1 stands at 58.4

For reference, reported % Evap Filter Paper for CC(C)O stands at 49.0

The measured values listed here are drawn from patent US6534079B1.
